# Test system: Candida albicans (Ca)
# assay summary: Minimum inhibitory concentration (MIC) in malt yeast agar
# Format: cell-based, Candida albicans ATCC 10231
# condition info: 48 h, read-out: Minimum Inhibitory Concentration, Ca
experimental endpoint: MIC (µg/mL)
Your answer is read as µg/mL, so omit the unit and give the number.

Study these solved cases before continuing.
> print(dat)
                           smiles.structure    experimental.target  test.value
1  N#CC1=C(C#N)Sc2nc3cc([N+](=O)[O-])ccc3nc2S1  Candida albicans (Ca)         2.5
2  N#CC1=C(C#N)Sc2nc3cc([N+](=O)[O-])c([N+](=O)[O-])cc3nc2S1  Candida albicans (Ca)          25
3        Cc1ccc2nc3c(nc2c1)SC(C#N)=C(C#N)S3  Candida albicans (Ca)          50

Lookup: Requested field: MIC. Item: N#CC(C#N)=C1Sc2nc3cc([N+](=O)[O-])c([N+](=O)[O-])cc3nc2S1
Found: 2.5
